# system-tested: hSERT (Homo sapiens, UniProt P31645)
# Construct: expressed in transfected cells; host or cells: HEK-293
# Sequence (P31645 whole entry): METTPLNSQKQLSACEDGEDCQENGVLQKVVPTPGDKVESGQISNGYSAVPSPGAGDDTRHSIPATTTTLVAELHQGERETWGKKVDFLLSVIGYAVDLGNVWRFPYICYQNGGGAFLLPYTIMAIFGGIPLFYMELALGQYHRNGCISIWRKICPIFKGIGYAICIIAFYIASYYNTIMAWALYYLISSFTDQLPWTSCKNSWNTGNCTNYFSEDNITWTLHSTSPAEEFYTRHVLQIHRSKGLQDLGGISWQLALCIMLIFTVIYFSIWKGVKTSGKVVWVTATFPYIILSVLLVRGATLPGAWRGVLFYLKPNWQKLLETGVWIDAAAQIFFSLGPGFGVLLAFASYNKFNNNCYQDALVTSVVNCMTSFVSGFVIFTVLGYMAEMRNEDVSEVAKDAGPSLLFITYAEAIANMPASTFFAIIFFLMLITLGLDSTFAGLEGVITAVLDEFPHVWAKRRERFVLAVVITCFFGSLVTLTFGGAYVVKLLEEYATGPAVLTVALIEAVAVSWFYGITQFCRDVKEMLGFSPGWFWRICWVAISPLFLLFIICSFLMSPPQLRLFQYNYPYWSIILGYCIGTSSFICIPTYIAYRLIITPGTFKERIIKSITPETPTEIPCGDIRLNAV
# method: fluorescence-based serotonin reuptake assay (Tsuruda et al. 2010; data with asterisk)
# Assay type: cell-based
# particulars: serotonin reuptake inhibition, fluorescence-based assay (data indicated by an asterisk)
Marks after values point to notes of the source that are not given here.
quantity-name: SERT pIC50

{"columns": ["test-smiles", "result"],
 "data": [
  ["Clc1cccc(OCc2ccsc2C2CCNCC2)c1", "≧7.0*"],
  ["c1ccc(OCc2ccoc2C2CCNCC2)cc1", "≧6.0*"],
  ["Fc1cccc(F)c1OCc1ccoc1C1CCNCC1", "≧5.0*"],
  ["Clc1cccc(OCc2occc2C2CCNCC2)c1", "≧7.0*"],
  ["Fc1cc(F)c(OCc2ccsc2C2CCNCC2)c(F)c1", "≧7.0*"]
]}

Name the reported SERT pIC50 value associated with the molecule `Clc1cccc(Cl)c1OCc1occc1C1CCNCC1`
≧7.0*

Name the reported SERT pIC50 value associated with the molecule `Fc1cccc(F)c1OCc1occc1C1CCNCC1`
≧6.0*

Name the reported SERT pIC50 value associated with the molecule `Fc1ccc(F)c(OCc2ncccc2C2CCNCC2)c1Cl`
≧7.0*

---

# system-tested: hNET (Homo sapiens, UniProt P23975)
# Construct: expressed in transfected cells; host or cells: HEK-293
# Sequence (P23975 whole entry): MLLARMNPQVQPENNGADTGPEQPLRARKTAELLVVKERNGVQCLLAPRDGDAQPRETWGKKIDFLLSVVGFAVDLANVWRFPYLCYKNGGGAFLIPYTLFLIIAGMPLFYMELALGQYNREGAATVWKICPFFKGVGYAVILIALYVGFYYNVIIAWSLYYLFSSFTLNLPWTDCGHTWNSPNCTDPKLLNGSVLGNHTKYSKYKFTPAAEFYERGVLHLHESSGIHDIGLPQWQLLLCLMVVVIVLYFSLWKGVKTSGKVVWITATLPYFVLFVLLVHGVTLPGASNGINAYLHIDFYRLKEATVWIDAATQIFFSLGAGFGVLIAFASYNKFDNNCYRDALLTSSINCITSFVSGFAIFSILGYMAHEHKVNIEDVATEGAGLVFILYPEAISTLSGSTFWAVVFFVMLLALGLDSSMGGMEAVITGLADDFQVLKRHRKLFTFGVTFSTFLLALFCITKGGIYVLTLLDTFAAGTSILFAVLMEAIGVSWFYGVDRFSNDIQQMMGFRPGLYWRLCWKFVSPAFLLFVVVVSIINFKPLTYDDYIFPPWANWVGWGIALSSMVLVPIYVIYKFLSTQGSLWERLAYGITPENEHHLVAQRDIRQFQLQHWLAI
# method: hNET membrane radioligand binding assay (3H-nisoxetine)
# particulars: hNET membranes, 1.0 nM 3H-nisoxetine
quantity-name: NET pKi

Completed entries (count: 5):
{"columns": ["molecule", "result"],
 "data": [
  ["Fc1ccccc1OCc1cscc1C1CCNCC1 [Example 28-1]", "≧7.0"],
  ["Fc1ccc(F)c(OCc2cnccc2C2CCNCC2)c1F [Example 6-6]", "≧6.0"],
  ["c1ccc(OCc2ncccc2C2CCNCC2)cc1 [Example 2-1]", "≧6.0"],
  ["Fc1ccc(F)c(OCc2sccc2C2CCNCC2)c1F [Example 25-4]", "≧6.0"],
  ["Fc1cc(Cl)cc(F)c1OCc1cnccc1C1CCNCC1 [Example 6-8]", "≧6.0"]
]}

Now examine the next entry.
Name the reported NET pKi value associated with the molecule Clc1cccc(OCc2cnccc2C2CCNCC2)c1 [Example 6-3]
≧5.0

---

# system-tested: hNET (Homo sapiens, UniProt P23975)
# Construct: expressed in transfected cells; host or cells: HEK-293
# method: hNET membrane radioligand binding assay (3H-nisoxetine)
# particulars: hNET membranes, 1.0 nM 3H-nisoxetine
quantity-name: NET pKi

{"columns": ["molecule", "result"],
 "data": [
  ["Fc1ccccc1OCc1ccncc1C1CCNCC1 [Example 10-2]", "≧7.0"],
  ["Clc1cccc(OCc2cscc2C2CCNCC2)c1 [Example 28-2]", "≧6.0"],
  ["Clc1cccc(Cl)c1OCc1sccc1C1CCNCC1 [Example 25-1]", "≧5.0"],
  ["Clc1cccc(OCc2ncccc2C2CCNCC2)c1 [Example 2-3]", "≧5.0"],
  ["Clc1cccc(OCc2cccnc2C2CCNCC2)c1 [Example 14-3]", "≧5.0"]
]}

Name the reported NET pKi value associated with the molecule Clc1cccc(OCc2ccncc2C2CCNCC2)c1 [Example 10-6]
≧6.0

Name the reported NET pKi value associated with the molecule Fc1cc(F)c(OCc2ccsc2C2CCNCC2)c(F)c1 [Example 31-3]
≧7.0

Name the reported NET pKi value associated with the molecule Fc1ccc(F)c(OCc2ccncc2C2CCNCC2)c1Cl [Example 10-9]
≧7.0

Name the reported NET pKi value associated with the molecule Fc1cc(Cl)cc(F)c1OCc1cccnc1C1CCNCC1 [Example 14-8]
≧7.0

Name the reported NET pKi value associated with the molecule Fc1ccccc1OCc1cccnc1C1CCNCC1 [Example 14-2]
≧7.0

---

# system-tested: hNET (Homo sapiens, UniProt P23975)
# Construct: expressed in transfected cells; host or cells: HEK-293
# method: hNET membrane radioligand binding assay (3H-nisoxetine)
# particulars: hNET membranes, 1.0 nM 3H-nisoxetine
quantity-name: NET pKi

Completed entries (count: 10):
{"columns": ["test-smiles", "NET pKi"],
 "data": [
  ["Fc1cccc(Cl)c1OCc1sccc1C1CCNCC1", "≧5.0"],
  ["Fc1cc(F)c(OCc2cscc2C2CCNCC2)c(F)c1", "≧7.0"],
  ["Fc1cccc(Cl)c1OCc1cnccc1C1CCNCC1", "≧7.0"],
  ["Fc1cccc(F)c1OCc1ncccc1C1CCNCC1", "≧7.0"],
  ["Fc1cc(Cl)cc(F)c1OCc1ccncc1C1CCNCC1", "≧7.0"],
  ["c1ccc(OCc2cnccc2C2CCNCC2)cc1", "≧5.0"],
  ["Fc1ccc(F)c(OCc2cscc2C2CCNCC2)c1Cl", "≧7.0"],
  ["c1ccc(OCc2ccncc2C2CCNCC2)cc1", "≧6.0"],
  ["Fc1cccc(Cl)c1OCc1ncccc1C1CCNCC1", "≧7.0"],
  ["Fc1ccc(F)c(OCc2cccnc2C2CCNCC2)c1F", "≧7.0"]
]}

Name the reported NET pKi value associated with the compound `Fc1ccccc1OCc1ccsc1C1CCNCC1`
≧7.0

Name the reported NET pKi value associated with the compound `Fc1ccc(F)c(OCc2ccncc2C2CCNCC2)c1F`
≧7.0

Name the reported NET pKi value associated with the compound `Fc1cc(Cl)cc(F)c1OCc1ncccc1C1CCNCC1`
≧6.0

Name the reported NET pKi value associated with the compound `Fc1cc(F)c(OCc2cnccc2C2CCNCC2)c(F)c1`
≧7.0

Name the reported NET pKi value associated with the compound `c1ccc(OCc2cccnc2C2CCNCC2)cc1`
≧6.0

Name the reported NET pKi value associated with the compound `Fc1ccccc1OCc1ncccc1C1CCNCC1`
≧7.0

Name the reported NET pKi value associated with the compound `Clc1cccc(OCc2ccsc2C2CCNCC2)c1`
≧7.0

Name the reported NET pKi value associated with the compound `Fc1ccc(F)c(OCc2ncccc2C2CCNCC2)c1F`
≧6.0

Name the reported NET pKi value associated with the compound `Fc1cccc(F)c1OCc1sccc1C1CCNCC1`
≧6.0

Name the reported NET pKi value associated with the compound `Fc1cccc(F)c1OCc1ccncc1C1CCNCC1`
≧7.0

Name the reported NET pKi value associated with the compound `Fc1cccc(Cl)c1OCc1ccncc1C1CCNCC1`
≧7.0

Name the reported NET pKi value associated with the compound `Fc1cc(Cl)cc(F)c1OCc1cscc1C1CCNCC1`
≧7.0

---

# system-tested: hNET (Homo sapiens)
# Construct: expressed in transfected cells; host or cells: HEK-293
# method: hNET membrane radioligand binding assay (3H-nisoxetine)
# particulars: hNET membranes, 1.0 nM 3H-nisoxetine
quantity-name: NET pKi

{"columns": ["test-smiles", "NET pKi"],
 "data": [
  ["Fc1ccc(F)c(OCc2cnccc2C2CCNCC2)c1Cl", "≧7.0"],
  ["Clc1cccc(Cl)c1OCc1cnccc1C1CCNCC1", "≧7.0"],
  ["Clc1cccc(Cl)c1OCc1cccnc1C1CCNCC1", "≧7.0"],
  ["Fc1ccccc1OCc1cnccc1C1CCNCC1", "≧6.0"],
  ["Fc1cccc(F)c1OCc1cccnc1C1CCNCC1", "≧7.0"],
  ["Fc1cccc(Cl)c1OCc1cccnc1C1CCNCC1", "≧7.0"],
  ["Fc1cc(Cl)cc(F)c1OCc1ccsc1C1CCNCC1", "≧7.0"],
  ["Clc1cccc(Cl)c1OCc1ccncc1C1CCNCC1", "≧7.0"],
  ["Clc1cccc(Cl)c1OCc1ncccc1C1CCNCC1", "≧7.0"]
]}

Now examine the next entry.
Name the reported NET pKi value associated with the molecule `Fc1ccc(F)c(OCc2ncccc2C2CCNCC2)c1Cl`
≧6.0

---

# system-tested: hSERT (Homo sapiens)
# Construct: expressed in transfected cells; host or cells: HEK-293
# method: hSERT membrane radioligand binding assay (3H-citalopram)
# particulars: hSERT membranes, 1.0 nM 3H-citalopram
quantity-name: SERT pKi

Completed entries (count: 4):
{"columns": ["compound", "result"],
 "data": [
  ["Clc1cccc(OCc2cscc2C2CCNCC2)c1 [Example 28-2]", "≧7.0"],
  ["Fc1ccc(F)c(OCc2cscc2C2CCNCC2)c1Cl [Example 28-5]", "≧7.0"],
  ["Fc1cc(Cl)cc(F)c1OCc1cccnc1C1CCNCC1 [Example 14-8]", "≧7.0"],
  ["Fc1ccc(F)c(OCc2ncccc2C2CCNCC2)c1Cl [Example 2-9]", "≧7.0"]
]}

Name the reported SERT pKi value associated with the compound Fc1cccc(Cl)c1OCc1cccnc1C1CCNCC1 [Example 14-5]
≧7.0

Name the reported SERT pKi value associated with the compound Clc1cccc(OCc2ncccc2C2CCNCC2)c1 [Example 2-3]
≧7.0

Name the reported SERT pKi value associated with the compound c1ccc(OCc2cccnc2C2CCNCC2)cc1 [Example 14-1]
≧6.0

Name the reported SERT pKi value associated with the compound Fc1cc(Cl)cc(F)c1OCc1ccsc1C1CCNCC1 [Example 31-4]
≧7.0

Name the reported SERT pKi value associated with the compound Fc1ccc(F)c(OCc2ccncc2C2CCNCC2)c1Cl [Example 10-9]
≧7.0

Name the reported SERT pKi value associated with the compound Fc1cccc(F)c1OCc1ncccc1C1CCNCC1 [Example 2-4]
≧6.0

Name the reported SERT pKi value associated with the compound Fc1cccc(F)c1OCc1ccncc1C1CCNCC1 [Example 10-3]
≧7.0

Name the reported SERT pKi value associated with the compound Fc1ccccc1OCc1ncccc1C1CCNCC1 [Example 2-2]
≧6.0

Where do the numbers come from? From patent US8530663B2.
